test system: L1210 leukemia ip in BDF1 mice, survival T/C; assay: NCI In Vivo Anticancer Drug Screen. Data for tumor model L1210 Leukemia (intraperitoneal) in B6D2F1 (BDF1) mice; settings: endpoint: mean survival time; dose: 100.0 mg/kg/injection; schedule: Q04DX002 (ip); vehicle: Klucel (hydroxypropylcellulose) (HPC); higher = longer survival
Toxic doses and inconclusive results are not listed.
In this section we review reported T/C values for a set of compounds.

{"Compound": "COC(=O)C(C)NC(=O)C(COC1OC(COC(C)=O)C(OC(C)=O)C(OC(C)=O)C1NC(C)=O)NC(=O)OCc1ccccc1 (stereo not given)", "T/C": "91 % of control"}

Attention now turns to another entry.
[in] // lookup T/C for `CCCCCCCCN=[N+](C)[O-]`
[out] 97 % of control

====

system: L1210 leukemia ip in BDF1 mice, survival T/C; experiment: NCI In Vivo Anticancer Drug Screen. Data for tumor model L1210 Leukemia (intraperitoneal) in B6D2F1 (BDF1) mice; conditions: endpoint: mean survival time; dose: 100.0 mg/kg/injection; schedule: Q04DX003 (ip); vehicle: saline with Tween-80; higher = longer survival
Inconclusive results and toxic doses are left out.
In this section we review reported T/C values for a set of molecules.

Worked examples follow.
{"Molecule": "Cc1ccc(C)c(C(=O)CCC(=O)O)c1", "T/C": "91 % of control"}
{"Molecule": "COC(=O)C(CSCSC)NC(=O)NC1CCCCC1 (stereo not drawn)", "T/C": "102 % of control"}

[in] // lookup T/C for O=C(O)CN1C(=O)C2C3CCC(C3)C2C1=O (stereo not drawn)
[out] 97 % of control

[in] // lookup T/C for C/C=C/c1cc(OC)cc(C2(O)OC(=O)c3c(OC)cccc32)c1OC (stereo not drawn)
[out] 105 % of control

[in] // lookup T/C for `Clc1nn2nnnc2c2ccccc12`
[out] 98 % of control

[in] // lookup T/C for CCCCCC1CCC(C(=O)O)CC1 (stereo not drawn)
[out] 88 % of control

[in] // lookup T/C for CC(=O)C1=CCC2C3CC(C)=C4CC(O)CCC4(C)C3CCC12C (stereo not drawn)
[out] 94 % of control

[in] // lookup T/C for `CCCNC(=O)Nc1cc(Cl)ccc1OC`
[out] 95 % of control

[in] // lookup T/C for `Clc1ccc(NC(Nc2ccc(Cl)c(Cl)c2)C(Cl)(Cl)Cl)cc1Cl`
[out] 101 % of control

[in] // lookup T/C for `N/N=C(/C(=O)c1ccccc1)c1ccccc1`
[out] 100 % of control

[in] // lookup T/C for O=C(O)C1CCC2SC(F)(F)C(F)(F)C2C1 (stereo not drawn)
[out] 98 % of control

[in] // lookup T/C for `CCCCOC(=O)c1ccccn1`
[out] 99 % of control

[in] // lookup T/C for `O=C1OCC/C1=C\c1ccc2c(c1)OCO2`
[out] 105 % of control

====

Test system: L1210 leukemia ip in BDF1 mice, survival T/C
Experiment: NCI In Vivo Anticancer Drug Screen. Data for tumor model L1210 Leukemia (intraperitoneal) in B6D2F1 (BDF1) mice
Settings: endpoint: mean survival time; dose: 50.0 mg/kg/injection; schedule: Q04DX003 (ip); vehicle: Klucel (hydroxypropylcellulose) (HPC); higher = longer survival
Procedure: The antitumor activity of compounds was measured in mice bearing transplantable tumors. Survival or tumor size were measured and the results are expressed as the measurement made in the treated group (T) divided by the measurement made in the vehicle treated control group (C). The tumor model used in this assay is L1210 Leukemia (intraperitoneal) in B6D2F1 (BDF1) mice
Toxic doses and inconclusive results are not listed. Square brackets hold non-standard residues; d marks the D form. Peptide text beside a SMILES is read from it. * marks the point of attachment. ξ: configuration not given here. Cbz = O=C(OCc1ccccc1)*; ξP = O=C(O)C1CCCN1
In this section we review reported T/C values for a set of compounds.

{"Compound": "C/C(=N\\[N+](C)(C)C)c1ccc2ccccc2c1", "T/C": "105 % of control"}
{"Compound": "CN(C(=O)CCl)c1ccccc1", "T/C": "98 % of control"}
{"Compound": "Nc1ccc(OCCNS(=O)(=O)c2ccc(S(=O)(=O)F)cc2)c(Cl)c1", "T/C": "97 % of control"}
{"Compound": "O=C(COc1ccc(Cl)c(Cl)c1)NCc1ccc[n+](Cc2ccc(S(=O)(=O)F)cc2)c1", "T/C": "101 % of control"}
{"Compound": "Clc1nc2ccccc2nc1CI", "T/C": "90 % of control"}
{"Compound": "CCCNS(=O)(=O)c1ccc(Cl)c([N+](=O)[O-])c1", "T/C": "100 % of control"}
{"Compound": "COc1ncnc(Cl)c1[N+](=O)[O-]", "T/C": "92 % of control"}
{"Compound": "CCCC(C)(COC(N)=O)COC(=O)NC(C)C (configuration not stated)", "T/C": "92 % of control"}
{"Compound": "COc1ccc(/C=N/n2c3ccccc3c3ccccc32)cc1OCCN(C)C", "T/C": "96 % of control"}
{"Compound": "O=C(NCC(=O)N1CCCC1C(=O)O)OCc1ccccc1 (stereo not drawn) (Cbz-Gly-[ξP]-OH)", "T/C": "96 % of control"}

[in] // lookup T/C for `Nc1nc(N)nc(-c2ccc(NC(=O)c3ccccc3[N+](=O)[O-])cc2)n1`
[out] 100 % of control

[in] // lookup T/C for `CC(C)/C=C(\C#N)C(=O)O`
[out] 98 % of control

====

tested on: L1210 leukemia ip in BDF1 mice, survival T/C; assay: NCI In Vivo Anticancer Drug Screen. Data for tumor model L1210 Leukemia (intraperitoneal) in B6D2F1 (BDF1) mice; settings: endpoint: mean survival time; dose: 100.0 mg/kg/injection; schedule: Q01DX009 (ip); vehicle: Klucel (hydroxypropylcellulose) (HPC); higher = longer survival
Inconclusive results and toxic doses are left out.
In this section we review reported T/C values for a set of molecules.

Worked examples follow.
{"Molecule": "COC(=O)c1ccc(C)c(-n2c(-c3ccccc3)nnc2-c2ccccc2)c1", "Reported Property": "T/C", "Measured Value": "93 % of control"}
{"Molecule": "Cc1c(Cl)c(Cl)c(NS(=O)(=O)c2ccccc2)c(NS(=O)(=O)c2ccccc2)c1Cl", "Reported Property": "T/C", "Measured Value": "95 % of control"}
{"Molecule": "CCOc1ccccc1NC(=O)Nc1ccccc1C", "Reported Property": "T/C", "Measured Value": "102 % of control"}
{"Molecule": "O=C(Nc1cccc(Cl)c1)Nc1cccc(Cl)c1", "Reported Property": "T/C", "Measured Value": "94 % of control"}
{"Molecule": "CC(C)N1CSC(=S)N(Cc2ccccc2)C1", "Reported Property": "T/C", "Measured Value": "92 % of control"}

[in] // lookup T/C for `Cc1ccc(C)c(NC(=O)Nc2ccc(S(N)(=O)=O)cc2)c1`
[out] 91 % of control

[in] // lookup T/C for `Cc1cc(Cl)ccc1OC(=O)Nc1c(C)cccc1C`
[out] 101 % of control

[in] // lookup T/C for `CC(C)OC(=O)Oc1cccc2c1C(=O)c1ccccc1C2=O`
[out] 91 % of control

====

In this section we review reported T/C values for a set of compounds.
test system: L1210 leukemia ip in BDF1 mice, survival T/C; test: NCI In Vivo Anticancer Drug Screen. Data for tumor model L1210 Leukemia (intraperitoneal) in B6D2F1 (BDF1) mice; conditions: endpoint: mean survival time; dose: 12.5 mg/kg/injection; schedule: Q04DX003 (ip); vehicle: Klucel (hydroxypropylcellulose) (HPC); higher = longer survival
Inconclusive results and toxic doses are left out.

{"Compound": "C=C/C=C/CCN1CC1", "System Name": "L1210 leukemia ip in BDF1 mice, survival T/C", "Measured Value": "114 % of control"}
{"Compound": "Oc1c(-c2ccccn2)cccc1C(F)(F)F", "System Name": "L1210 leukemia ip in BDF1 mice, survival T/C", "Measured Value": "98 % of control"}
{"Compound": "Cc1c([N+](=O)[O-])cc(C(C)(C)C)c(OC(=O)Nc2ccccc2)c1[N+](=O)[O-]", "System Name": "L1210 leukemia ip in BDF1 mice, survival T/C", "Measured Value": "93 % of control"}
{"Compound": "CCN(CC)c1ccc(NC(C)=O)cc1", "System Name": "L1210 leukemia ip in BDF1 mice, survival T/C", "Measured Value": "92 % of control"}
{"Compound": "C=CCNC(=S)Nc1cccc2ccccc12", "System Name": "L1210 leukemia ip in BDF1 mice, survival T/C", "Measured Value": "105 % of control"}

[in] // lookup T/C for OC(/C=C/C(O)c1ccccc1)c1ccccc1 (centres undefined)
[out] 95 % of control

[in] // lookup T/C for `C=C(Br)CN(CC)CC`
[out] 100 % of control

[in] // lookup T/C for CC1=CC(=O)CC(C)(C)C1(O)/C=C/C(C)=C/C(=O)O (centres undefined)
[out] 93 % of control

[in] // lookup T/C for `CNC(=S)N/N=C(\C)CSC/C(C)=N/NC(=S)NC`
[out] 102 % of control

Origin of measurements: PubChem BioAssay AID248
